- SUBJECT OF TEST: Heat shock factor protein 1 (Homo sapiens)
- TEST DESCRIPTION: ATG_HSE_CIS: Attagene CIS-FACTORIAL HepG2 Assay for human Heat Shock Transcription Factor 1 (HSE) (AID 2282953)
- CONDITION SUMMARY: HepG2 HSE cis-reporter, Attagene RNA transcription; actives raise or lower the signal
Calls of active or inactive are those of the source. Rule for the calls: active = hit-call score of the fitted dose curve at least 0.9, where 1 is the maximum; inactive = score below 0.9.
Returns: one label drawn from Yes for active, No for inactive

The following molecules have reported results that may help.
Problem: GET /call?item= Nc1ccc(N=Nc2ccc(-c3ccc(N=Nc4c(S(=O)(=O)O)cc5cc(S(=O)(=O)O)c(N=Nc6ccccc6)c(O)c5c4N)cc3)cc2)c(N)c1 returns the recorded outcome of this test.
Solution: No

Problem: Can you look up the reported call for CCOP(=S)(OCC)SCSP(=S)(OCC)OCC for me?
Solution: No

Problem: Hello, I am checking results. What call was entered for CCCCC(CC)CO[N+](=O)[O-] (stereo not drawn) ?
Solution: No

***
Problem: Fill in: this test's call for CNC is ___
Solution: No

Problem: What was the test verdict on CNC(=O)O/N=C/C(C)(C)S(C)=O (stereo not drawn) ?
Solution: Yes

Problem: State the result this test recorded for CC(=[OH+])/C=C(/C)[O-].CC(=[OH+])/C=C(/C)[O-].CC(=[OH+])/C=C(/C)[O-].[Al] .
Solution: No

Problem: // param item: COc1cc(OC)nc(NC(=O)NS(=O)(=O)c2ncccc2C(=O)N(C)C)n1 ; yields the recorded call
Solution: No

Problem: Just curious, what result did OCC(O)CCl (stereo not drawn) get here?
Solution: No

Problem: For this molecule, state the assay outcome: CCN1CCC2(CC1)COc1cc3c(cc12)N(C(=O)c1ccc(-c2ccc(-c4nnc(C)o4)cc2C)cc1)CC3
Solution: No

====

- TEST DESCRIPTION: BSK_LPS_SRB: Viability Assessment in the BioMAP Diversity Plus: LPS Assay (AID 2283079);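 note: total protein by sulforhodamine B absorbance as a cytotoxicity measure; measured one day after compound addition; fitted in both directions against DMSO so loss or gain of signal counts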
- CONDITION SUMMARY: primary human HUVEC with PBMC
Calls of active or inactive are those of the source. Rule for the calls: active = hit-call score of the fitted dose curve at least 0.9, where 1 is the maximum; inactive = score below 0.9.
# valid calls are Y (active), N (inactive); nothing else

Previously resolved entries follow.
Problem: Recorded test call requested for O=c1[nH]c(=O)[nH]c(=O)[nH]1
Solution: N

Problem: Outcome? COP(=S)(OC)Oc1cc(Cl)c(Cl)cc1Cl
Solution: N

Problem: Short answer needed: outcome of this test for CCOP(=S)(OCC)Oc1nc(Cl)c(Cl)cc1Cl ?
Solution: N

Problem: Hi, sorry to bother you, what did the test record for Nc1ncc([N+](=O)[O-])s1 ?
Solution: N

New cases:
Problem: Record lookup: outcome of this test for ClC1=C(Cl)[C@]2(Cl)[C@H]3[C@H]([C@H]4C=C[C@H]3C4)[C@@]1(Cl)C2(Cl)Cl ?
Solution: Y

Problem: Per the assay record, what outcome was assigned to CC(=O)OC(c1ccccc1)C(Cl)(Cl)Cl (configuration not stated) ?
Solution: N

====

- Read-out: Monokine induced gamma interferon (MIG), CXCL9 (gene 4283)
- TEST DESCRIPTION: BSK_BE3C_MIG: BioMAP Diversity Plus: BE3C Assay for Monokine induced gamma interferon (MIG) Biomarker Activity (AID 2283035);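 for outcome: MIG protein measured by ELISA in BE3C cultures after 24 h of dosing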
- CONDITION SUMMARY: primary human bronchial epithelial cells; actives raise or lower the signal
Active and inactive are the calls of the source. Rule for the calls: active = hit-call score of the fitted dose curve at least 0.9, where 1 is the maximum; inactive = score below 0.9.
Tick one outcome: active, inactive

Problem: Could you kindly confirm the outcome this assay logged for CC12CC1(C)C(=O)N(c1cc(Cl)cc(Cl)c1)C2=O (stereo not drawn) ?
Solution: inactive

Problem: What call does the record list for CC(=O)[O][Hg][c]1ccccc1 ?
Solution: active

Problem: What classification did CCOP(=S)(OCC)Oc1nc(Cl)c(Cl)cc1Cl end up with in this test?
Solution: inactive

Problem: Returns: the outcome recorded for Nc1cccc2ccccc12 in this assay.
Solution: inactive

Continuing:
Problem: For CN(C)N=O , what call appears in the results of this test?
Solution: inactive

Problem: Which outcome was entered for the compound NC(=S)Nc1ccccc1 in this test?
Solution: inactive

Problem: Which outcome was entered for the compound Oc1c(I)cc(I)cc1I in this test?
Solution: inactive

Problem: Record lookup: outcome of this test for CC(C)(C)CC(C)(C)c1ccc(O)cc1 ?
Solution: active

====

- Read-out: Interleukin-1 alpha (IL1a), IL1A (gene 3552)
- TEST DESCRIPTION: BSK_KF3CT_IL1a: BioMAP Diversity Plus: KF3CT Assay for Interleukin-1 alpha (IL1a) Biomarker Activity (AID 2283070)
- CONDITION SUMMARY: primary human keratinocytes with fibroblasts; actives raise or lower the signal
Active and inactive are the calls of the source. The calls were made as follows: active = hit-call score of the fitted dose curve at least 0.9, where 1 is the maximum; inactive = score below 0.9.
Hi there, use one of these labels in your reply, thanks! T = active, F = inactive

Worked set:
Problem: Which outcome was assigned to COC(=O)Cc1ccccc1 in this test?
Solution: F

Problem: Can you look up the reported call for Oc1cccc2cccnc12 for me?
Solution: T

Problem: Tell me the recorded outcome of this test for CC(=O)OC(c1ccccc1)C(Cl)(Cl)Cl (stereo unspecified) .
Solution: F

Problem: Record lookup: outcome of this test for C[C@@H]1C[C@@H]([C@H](O)CC2CC(=O)NC(=O)C2)C(=O)[C@@H](C)C1 ?
Solution: T

Problem: For BrCCBr , which call appears in the assay record?
Solution: F

Problem: Please let me know the test result on file for O=C(Nc1ccc2[nH]ccc2c1)c1cc2cc(F)ccc2n1Cc1cccc(F)c1 .
Solution: T

Others:
Problem: Can you look up the reported call for O=c1[nH]c(=O)[nH]c(=O)[nH]1 for me?
Solution: F

Problem: Look up the recorded call for CC(C)CCCCCCOC(=O)c1ccccc1C(=O)OCCCCCCC(C)C in this test.
Solution: T

Problem: Call for entry Oc1c(I)cc(I)cc1I :
Solution: T

Problem: Recorded test call requested for O=C1C2(Cl)C3(Cl)C4(Cl)C(Cl)(Cl)C5(Cl)C3(Cl)C1(Cl)C5(Cl)C24Cl (stereo unspecified)
Solution: T

Problem: Tell me the assay call for CCCCCCCCc1ccc(O)cc1 please.
Solution: T

====

- SUBJECT OF TEST: Cellular tumor antigen p53 (Homo sapiens)
- TEST DESCRIPTION: ATG_p53_CIS: Attagene CIS-FACTORIAL HepG2 Assay for human p53 Transcription Factor (AID 2282994)
- CONDITION SUMMARY: HepG2 p53 cis-element reporter, Attagene mRNA; actives raise or lower the signal
Active and inactive are the calls of the source. How the source made its calls: active means hit-call score of the fitted dose curve at least 0.9, where 1 is the maximum; inactive means score below 0.9.
Classes to choose from: active, inactive

Problem: Answer briefly: the call reported for Oc1c(I)cc(I)cc1I in this assay.
Solution: inactive

Problem: Assay result, entry C=CC#N — outcome?
Solution: inactive

Problem: Per the assay record, what outcome was assigned to COP(=S)(OC)Oc1cc(Cl)c(Cl)cc1Cl ?
Solution: inactive

Problem: Any idea what this test logged for CCc1ccccc1C ?
Solution: inactive

Problem: Field: outcome | Entry: CC(C)(c1ccc(OCC2CO2)cc1)c1ccc(OCC2CO2)cc1 (stereo not given)
Solution: active

Switching to the query record.
Problem: Write down the call the test reported for this molecule. Item: CC(=[OH+])/C=C(/C)[O-].CC(=[OH+])/C=C(/C)[O-].CC(=[OH+])/C=C(/C)[O-].[Fe]
Solution: inactive

====

- TEST DESCRIPTION: CCTE_Harrill_HTTr_CellCount_MCF7: CCTE's Cell Proliferation Assessment for the High-Throughput Transcriptomics (HTTr) Platform, Harrill Lab (AID 2284012);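 note: count of Hoechst-stained nuclei per well by high-content imaging in MCF-7 cells; cells exposed to compound for six hours; intended direction is loss of nuclei count meaning fewer cells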
Records with an inconclusive call do not appear. The source made the active and inactive calls. How the source made its calls: active means hit-call score of the fitted dose curve at least 0.9, where 1 is the maximum; inconclusive means response in the unintended direction; inactive means score below 0.9.
QUANTITY KIND: AC50

Worked set:
Problem: Report AC50 for Nc1cccc2ccccc12 please.
Solution: inactive

Problem: Item under review: CC(Br)C(=O)O (stereo not drawn) . Reported AC50?
Solution: inactive

Problem: Returns the measured AC50 for the input compound. Input: CCN1CCC2(CC1)COc1cc3c(cc12)N(C(=O)c1ccc(-c2ccc(-c4nnc(C)o4)cc2C)cc1)CC3
Solution: inactive

Problem: Bench note: what AC50 did CCC1(c2ccc(N)cc2)CCC(=O)NC1=O (stereo not drawn) show?
Solution: inactive

Problem: For the compound shown here, CCOP(=S)(OCC)Oc1ccc(S(C)=O)cc1 (stereo not drawn) , give the reported AC50.
Solution: inactive

Problem: Which AC50 is listed for CCC(=O)C(CC(C)N(C)C)(c1ccccc1)c1ccccc1 (stereo not drawn) ?
Solution: inactive

Problem: So what's the measured AC50 for this one? Cc1ccccc1C(=O)Nc1cccc(OC(C)C)c1
Solution: inactive

Problem: I would be grateful if you could share the reported AC50 for CCc1ccccc1C .
Solution: inactive

Problem: Entry under review: CCC(C)(C)c1ccc(O)c(C(C)(C)CC)c1 . Reported AC50?
Solution: inactive

Problem: Recorded AC50 for O=S(=O)(c1ccc(Cl)cc1)c1ccc(Cl)cc1 , please?
Solution: inactive

New cases:
Problem: Which measured AC50 value corresponds to CCCCCCCCC(=O)NCc1ccc(O)c(OC)c1 ?
Solution: inactive

Problem: What does the record list as AC50 for CCOC(=O)Nc1cccc(OC(=O)Nc2ccccc2)c1 ?
Solution: inactive

Problem: Param item = CC(C)c1cccc(C(C)C)c1O ; retrieve measured AC50.
Solution: inactive

Problem: For the compound Oc1c(I)cc(I)cc1I , what AC50 is on record?
Solution: inactive

Problem: Endpoint output: AC50 of ClC1=C(Cl)[C@]2(Cl)[C@H]3[C@H]([C@H]4C=C[C@H]3C4)[C@@]1(Cl)C2(Cl)Cl . Value?
Solution: inactive

Problem: Entry under review: O=C1C2(Cl)C3(Cl)C4(Cl)C(Cl)(Cl)C5(Cl)C3(Cl)C1(Cl)C5(Cl)C24Cl (stereo not drawn) . Reported AC50?
Solution: inactive

Problem: Form field: reported AC50 of O=c1[nH]c(=O)[nH]c(=O)[nH]1
Solution: inactive

Problem: May I ask what AC50 has been recorded for CC1(C)Cc2cccc(O)c2O1 ?
Solution: inactive

Problem: Bench note: what AC50 did O=CC=O show?
Solution: inactive

Problem: What value of AC50 has been reported for the following compound? O=C(O)C(Cl)(Cl)Cl
Solution: inactive

Problem: Which AC50 value belongs to CC(C)(OO)c1ccccc1 ?
Solution: inactive
